Type: in vitro ADME, rat
Run conditions: both, rat, pH 7.4
Readout name: recovery at 60 min, 10 µM

[Q] Annotate the compound C[C@H]1CCCC(=O)CCC/C=C/c2cc(O)cc(O)c2C(=O)O1 with its measured recovery at 60 min, 10 µM.
[A] > 80%
